Where do these numbers come from? They come from paper PMC5540273.

Test system: MEK5
Construct: gene MAP2K5
Experimental setup: concentration: 1 μM, replicates: in singlicate; n = 1;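 note: KINOMEscan kinase panel screen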
Measurement label: %Inh (%)
The response must be a number in % with no trailing unit.

Cc1cccc(-c2nc(Nc3ccc4ncsc4c3)c3ccccc3n2)n1 :: 12

Reported %Inh, molecule COc1cc(Nc2nccc(N3CCC(NC(=O)c4cccc(NC(C)=O)c4)C3)n2)cc(OC)c1OC (stereo not shown) : ____
93.5

Reported %Inh, molecule CNc1ncnc2[nH]ncc12 : ____
55

Reported %Inh, molecule COc1cc2c(cc1OC[C@@H](O)CO)ncc1c3ccc(C#N)cc3[nH]c21 : ____
99.9

Reported %Inh, molecule CC(=O)Nc1ccc(COc2ccc(Nc3ccnc4cc(-c5ccccn5)ccc34)cc2)cc1.Cl : ____
99.5

Reported %Inh, molecule Nc1nccc(-c2c(-c3ccc(F)cc3)ncn2C2CCN(CC(F)(F)F)CC2)n1 : ____
10

Reported %Inh, molecule N#Cc1ccc(-c2cc(-c3c[nH]nc3-c3ccccn3)ccn2)cc1 : ____
13

Reported %Inh, molecule Cc1cccc(-c2nc(-c3ccc(S(C)(=O)=O)cc3)sc2-c2ccncc2)c1 : ____
12

Reported %Inh, molecule Cc1cn2c(=O)cc(N3CCOCC3)nc2n1Cc1cccc(Cl)c1Cl : ____
54

Reported %Inh, molecule CN1c2ccc(NCc3ccc(F)cc3)cc2-c2c(cnn2C)S1(=O)=O : ____
17

---

Quick list: %Inh per entry.
Test system: BRAF
Experimental setup: concentration: 1 μM, replicates: in singlicate; n = 1
The response must be a number in % with no trailing unit.

Observe how each entry below is paired with its result.
COc1ccc(Nc2ncc(C#N)c(Nc3ccccc3C(N)=O)n2)cc1N1CCN(C)CC1.Cl [GSK1558669] :: 98.6
CNc1ncnc2[nH]ncc12 [SKF-18355] :: 11
Cc1cccc(Cn2ccn3c(=O)cc(N4CCOCC4)nc23)c1 [GSK2297542] :: 4
Nc1nccc(-c2c(-c3ccc(F)cc3)ncn2C2CCN(CC(F)(F)F)CC2)n1 [SB-236560] :: 0
c1ccc(-c2cc(-c3c[nH]nc3-c3ccccn3)ccn2)cc1 [GW576604] :: 0

Turning to the following compound.
Write down the reported %Inh of Fc1ccc(-c2ncn(CCCN3CCOCC3)c2-c2cccnc2)cc1 [SB-211743] , test system: BRAF.
2

---

System: ITK
Experimental setup: concentration: 1 μM, replicates: in singlicate; n = 1
Measurement label: %Inh (%)
The response must be a number in % with no trailing unit.

COCCNC(=O)c1ccc(-c2cc(C(=O)NC3CC3)cc(F)c2C)cc1 [GW868318] :: 8
Cc1nnc(-c2ccc3occ(-c4ccc(C(C)O)cc4)c3c2)o1 (centres unmarked) :: 14
O=C(NCCNc1ccnc(Nc2ccc(F)cc2)n1)Nc1ccccc1F [GSK1379880] :: 30

Write down the reported %Inh of CSc1ccc(-c2cc3ncnc(SCC(=O)O)c3s2)cc1 , test system: ITK.
0

Write down the reported %Inh of N#Cc1c(N2CCOCC2)sc(-c2ccn[nH]2)c1-c1ccc(Cl)cc1 , test system: ITK.
6

---

Tested on: NLK
Experimental setup: concentration: 1 μM, replicates: in singlicate; n = 1
Measurement label: %Inh (%)
The response must be a number in % with no trailing unit.

Observe how each entry below is paired with its result.
O=c1cc(N2CCOCC2)nc2n(Cc3cccc4ccccc34)ccn12 :: 0
CSc1ccc(-c2cc3ncnc(SCC(=O)O)c3s2)cc1 :: 26

Reported %Inh, compound N#Cc1c(N2CCOCC2)sc(-c2ccn[nH]2)c1-c1ccc(Cl)cc1 : ____
0

Reported %Inh, compound Cl.Oc1cccc(Nc2ccnc3cc(-c4ccncc4)ccc23)c1 : ____
66

Reported %Inh, compound COc1cc2c(cc1OCCN1CCN(C)CC1)ncc1c3ccc(C#N)cc3[nH]c21 : ____
0

Reported %Inh, compound COc1ccc(Nc2nccc(N3CCC(NC(=O)Nc4cccc(C(C)=O)c4)C3)n2)cc1 (stereo not drawn) : ____
0

Reported %Inh, compound O=C(c1ccc(-c2cc(-c3c[nH]nc3-c3ccccn3)ccn2)cc1)N1CCOCC1 : ____
0

Reported %Inh, compound Cc1cccc(Cn2ccn3c(=O)cc(N4CCOCC4)nc23)c1 : ____
15

Reported %Inh, compound Cn1cc(-c2ccc3c(c2)CCN3C(=O)Cc2ccccc2Cl)c2c(N)ncnc21 : ____
86

Reported %Inh, compound Cc1c2ccc(N(C)c3ccnc(Nc4cccc(S(N)(=O)=O)c4)n3)cc2nn1Cc1ccccc1.Cl.Cl : ____
5

Reported %Inh, compound Nc1nccc(-c2c(-c3ccc(F)cc3)ncn2C2CCN(CC(F)(F)F)CC2)n1 : ____
60

Reported %Inh, compound N#Cc1ccc(-c2cc(-c3c[nH]nc3-c3ccccn3)ccn2)cc1 : ____
16

Reported %Inh, compound O=c1cc(N2CCOCC2)nc2n(Cc3cccc(Cl)c3Cl)c(C3CC3)nn12 : ____
22

Reported %Inh, compound Cl.Nc1ncnc2occ(-c3ccc(NC(=O)Nc4cc(C(F)(F)F)ccc4F)cc3)c12 : ____
26

Reported %Inh, compound NS(=O)(=O)CCc1cccc(Nc2nccc(-c3c(-c4cccc(NC(=O)c5c(F)cccc5F)c4)nn4ccccc34)n2)c1 : ____
84

Reported %Inh, compound Cc1cn2c(=O)cc(N3CCOCC3)nc2n1Cc1cccc(Cl)c1Cl : ____
9

Reported %Inh, compound CC(C)(C)n1cnc2c(N)ncnc21 : ____
2

Reported %Inh, compound Cn1ccc2ncnc(Oc3ccc(NC(=O)Nc4ccncc4)c(Cl)c3)c21 : ____
0

---

Quick list: %Inh per entry.
Tested on: IKK-alpha
Construct: gene CHUK
Experimental setup: concentration: 1 μM, replicates: in singlicate; n = 1
The response must be a number in % with no trailing unit.

Observe how each entry below is paired with its result.
Cc1c2ccc(N(C)c3ccnc(Nc4cccc(S(N)(=O)=O)c4)n3)cc2nn1Cc1ccccc1.Cl.Cl [GW787226] :: 0
COc1ccc(Nc2ncc(C#N)c(Nc3ccccc3C(N)=O)n2)cc1N1CCN(C)CC1.Cl [GSK1558669] :: 97.8
COc1cc2ncn(-c3cc(OCc4sccc4Cl)c(C(N)=O)s3)c2cc1OC [GSK448459] :: 0
CN(C1=C(c2ccccc2)C(=O)NC1=O)c1ccccc1 [SB-334860] :: 0
CN1c2ccc(NCc3ccc(F)cc3)cc2-c2c(cnn2C)S1(=O)=O :: 0

Reported %Inh, compound O=C(NCCCN1CCOCC1)c1cccc(Nc2nccc(Nc3ccc(Oc4ccccc4)cc3)n2)c1 [GW663929] : ____
0

Reported %Inh, compound Cl.Nc1ncnc2occ(-c3ccc(NC(=O)Nc4cc(C(F)(F)F)ccc4F)cc3)c12 [SB-707548] : ____
86

Reported %Inh, compound O=C(Nc1cccc(-c2nn3ncccc3c2-c2ccnc(Nc3cccc(C(F)(F)F)c3)n2)c1)c1c(F)cccc1F [GSK299495] : ____
33

---

Quick list: %Inh per entry.
Test system: MYLK
Experimental setup: concentration: 1 μM, replicates: in singlicate; n = 1
The response must be a number in % with no trailing unit.

Observe how each entry below is paired with its result.
O=c1cc(N2CCOCC2)nc2n(Cc3cccc(F)c3)ccn12 :: 4
O=C(NCCNc1ccnc(Nc2ccc(F)cc2)n1)Nc1ccccc1F :: 9
Cc1nnc(-c2ccc3ncc(-c4ccc(S(C)=O)cc4)n3c2)o1 (centres unmarked) :: 18
NCC(NC(=O)c1cc(-c2cn[nH]c2)c(-c2ccnc3[nH]ccc23)s1)c1ccccc1.O=C(O)C(F)(F)F.O=C(O)C(F)(F)F (centres unmarked) :: 63
COc1cc(Nc2nccc(N3CCC(NC(=O)c4cccc(NC(C)=O)c4)C3)n2)cc(OC)c1OC (centres unmarked) :: 14
Cc1c2ccc(N(C)c3ccnc(Nc4cccc(S(N)(=O)=O)c4)n3)cc2nn1Cc1ccccc1.Cl.Cl :: 0
CN1c2ccc(NCc3ccc(F)cc3)cc2-c2c(cnn2C)S1(=O)=O :: 12

Reported %Inh, compound NS(=O)(=O)c1cccc(-c2ccc3nccc(-c4cccc(S(N)(=O)=O)c4)c3c2)c1 : ____
0

---

Tested on: DCAMKL2
Construct: gene DCLK2
Experimental setup: concentration: 1 μM, replicates: in singlicate; n = 1
Measurement label: %Inh (%)
The response must be a number in % with no trailing unit.

COc1ccc(CNC(=O)NC2CCN(c3ccnc(Nc4ccc(OC)cc4)n3)C2)cc1 (stereo not shown) [GSK1379727] :: 0
Cn1ccc2ncnc(Oc3ccc(NC(=O)Nc4ccncc4)c(Cl)c3)c21 :: 0
CN(C1=C(c2ccccc2)C(=O)NC1=O)c1ccccc1 [SB-334860] :: 11

Turning to the following compound.
Reported %Inh, compound COc1cc(Nc2nccc(N3CCC(NC(=O)c4cccc(NC(C)=O)c4)C3)n2)cc(OC)c1OC (stereo not shown) [GSK1379754] : ____
21
